- experimental.target: Kdr (Homo sapiens)
- Construct: Kinases are expressed as either kinase domains or full length constructs; made in house
- Sequence (P35968 20-1356, species assumed): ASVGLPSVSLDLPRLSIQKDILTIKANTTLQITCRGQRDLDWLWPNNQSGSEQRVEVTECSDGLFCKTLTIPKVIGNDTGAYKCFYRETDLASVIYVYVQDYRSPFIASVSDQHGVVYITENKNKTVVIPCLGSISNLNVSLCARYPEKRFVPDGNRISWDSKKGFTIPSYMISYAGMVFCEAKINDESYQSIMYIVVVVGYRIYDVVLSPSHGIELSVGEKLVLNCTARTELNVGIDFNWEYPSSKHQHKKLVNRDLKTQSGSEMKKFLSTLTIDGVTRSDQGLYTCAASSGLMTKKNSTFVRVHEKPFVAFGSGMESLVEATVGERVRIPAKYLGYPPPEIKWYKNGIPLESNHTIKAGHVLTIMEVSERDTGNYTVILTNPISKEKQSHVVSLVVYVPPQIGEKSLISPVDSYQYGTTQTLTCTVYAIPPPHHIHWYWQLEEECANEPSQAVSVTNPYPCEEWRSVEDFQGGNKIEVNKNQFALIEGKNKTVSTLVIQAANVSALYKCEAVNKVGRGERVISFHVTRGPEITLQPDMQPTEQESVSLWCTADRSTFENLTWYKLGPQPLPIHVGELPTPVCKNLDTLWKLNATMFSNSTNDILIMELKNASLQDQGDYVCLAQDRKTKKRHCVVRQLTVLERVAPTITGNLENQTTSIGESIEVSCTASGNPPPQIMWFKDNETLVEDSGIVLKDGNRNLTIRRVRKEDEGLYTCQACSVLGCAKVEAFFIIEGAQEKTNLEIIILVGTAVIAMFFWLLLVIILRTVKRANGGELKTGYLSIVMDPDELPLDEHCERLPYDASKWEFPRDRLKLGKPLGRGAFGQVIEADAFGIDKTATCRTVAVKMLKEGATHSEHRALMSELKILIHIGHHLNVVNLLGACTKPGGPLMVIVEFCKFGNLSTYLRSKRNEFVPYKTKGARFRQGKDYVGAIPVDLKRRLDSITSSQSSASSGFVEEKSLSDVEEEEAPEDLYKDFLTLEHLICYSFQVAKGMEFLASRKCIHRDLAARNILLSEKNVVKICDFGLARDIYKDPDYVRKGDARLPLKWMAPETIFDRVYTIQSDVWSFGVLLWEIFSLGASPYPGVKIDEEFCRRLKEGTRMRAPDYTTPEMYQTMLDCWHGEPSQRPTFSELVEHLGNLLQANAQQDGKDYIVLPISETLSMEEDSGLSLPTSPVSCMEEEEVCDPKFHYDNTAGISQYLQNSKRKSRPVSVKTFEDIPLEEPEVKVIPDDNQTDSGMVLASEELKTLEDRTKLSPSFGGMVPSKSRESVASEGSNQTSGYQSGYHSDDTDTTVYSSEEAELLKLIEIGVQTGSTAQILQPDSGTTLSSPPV
- experiment.summary: Kinase inhibition assay (33P transfer), Kdr
- Type: biochemical
- setup.conditions: Table 3, class symbols; read-out: KDR-1
pIC50: −log10 of the molar value.

compound.structure | pIC50
COc1cc(Nc2ncnc(-c3cccnc3Nc3ccccc3C)n2)cc(OC)c1OC | > 6.05
COc1ccc(Nc2ncnc(N(C)c3ccc(C(=O)O)cc3)n2)cc1OC | 5.04 to 5.20
COc1ccc(Nc2ncnc(N(C)c3ccccc3OC(F)(F)F)n2)cc1OC | 4.97 to 5.08
COC(=O)c1ccc(-c2cc(Nc3ncnc(NCCN4CCOCC4)n3)[nH]n2)cc1 | < 4.97
COc1ccc(Nc2ncnc(NCc3ccc(C)c(Cl)c3)n2)cc1OC | < 4.93
OCc1cccc(Nc2ncnc(-c3cccnc3NCc3ccccc3)n2)c1 | > 5.98
O=C(O)CCNC(=O)c1ccc(Nc2ncnc(Nc3cc(-c4ccco4)[nH]n3)n2)cc1 | > 6.04
COc1ccc(Nc2ncnc(N(C)c3ccc(Cl)cc3)n2)cc1OC | 5.19 to 5.97
CCN(c1cccc(Cl)c1)c1ncnc(Nc2cc(OC)cc(OC)c2)n1 | 5.21 to 5.98
COc1cc(Nc2ncnc(-n3ccnc3Cl)n2)cc(OC)c1OC | 4.91 to 5.02
COc1cc(Nc2ncnc(Nc3cc(-c4ccco4)[nH]n3)n2)cc(C(F)(F)F)c1 | 5.24 to 6.02
COc1cc(CNc2ncnc(Nc3cc(-c4ccco4)n[nH]3)n2)cc(OC)c1OC | < 4.97
COc1ccc(CNc2nc3ccccc3n2-c2ncnc(Nc3cccc(C(=O)O)c3)n2)cc1 | 5.29 to 6.07
c1ccc(CNc2ncccc2-c2ncnc(Nc3cccc(Cn4ccnn4)c3)n2)cc1 | > 6.04
Fc1cccc(CNc2nc3ccccc3n2-c2ncnc(Nc3cccc(Cn4ccnn4)c3)n2)c1 | > 6.09
COc1cc(Nc2ncnc(N3CCCc4c(Cl)cccc43)n2)cc(OC)c1OC | 5.25 to 6.03
COc1ccc(Nc2ncnc(N(C)c3ccc(S(=O)(=O)O)cc3)n2)cc1OC | 5.24 to 6.02
COc1cc(Nc2ncnc(-c3cccnc3Nc3ccc(Cl)cc3C)n2)cc(OC)c1OC | 5.30 to 6.08
